Answer each item with its documented pIC50.
experimental.system: (recombinant) catalytic domain of human Bub1 (amino acids 704-1085) (Homo sapiens (Human), UniProt O43683)
Sequence (O43683 704-1085): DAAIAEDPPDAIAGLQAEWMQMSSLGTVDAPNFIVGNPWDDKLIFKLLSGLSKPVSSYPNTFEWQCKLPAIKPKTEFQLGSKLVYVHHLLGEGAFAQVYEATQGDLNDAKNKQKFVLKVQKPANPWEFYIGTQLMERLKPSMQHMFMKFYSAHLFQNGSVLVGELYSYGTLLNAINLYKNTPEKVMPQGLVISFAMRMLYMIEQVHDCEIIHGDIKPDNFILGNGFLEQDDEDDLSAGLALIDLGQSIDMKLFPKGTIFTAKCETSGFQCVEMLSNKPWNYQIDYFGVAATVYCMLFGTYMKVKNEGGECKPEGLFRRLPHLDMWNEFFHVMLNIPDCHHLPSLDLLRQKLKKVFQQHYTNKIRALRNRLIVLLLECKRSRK
assay.notes: Bub1 kinase assay (TR-FRET)
assay.setup: ATP 10 μM final, peptide substrate 1 μM final, 60 min at 22° C., read-out: Biological Assay: Bub1 kinase assay median IC50
One number for each entry, as −log10 of the molar value.

Completed entries (count: 3):
COc1cccc(Nc2c(-c3ccncc3)[nH]c3c2C(=O)CC(C)(C)C3)c1 7.00
O=C1CCCc2[nH]c(-c3ccncc3)c(Nc3ccc(F)cc3)c21 7.64
CC1(C)CC(=O)c2c([nH]c(-c3ccnc(C#N)c3)c2Nc2ccccc2)C1 7.54

Record summary for CCCCOCC(=O)Nc1cc(-c2[nH]c3c(c2Nc2ccccc2)C(=O)CCC3)ccn1 : reported pIC50 = 8.13
